The reported numbers originate from ChEMBL document CHEMBL2169744.

# Assay Overview: Half life in rat at 0.5 mg/kg, iv
# Assay type: ADME, organism-based
# Design: dose 0.5 mg/kg, route intravenous
# Experimental Parameters: in vivo
Readout Label: half-life (min)

These recorded examples may help you get a feel for the data.
Cc1nccc(-c2c(Nc3ccn[nH]3)nc3cccnn23)n1 ... 13.8
Cc1nc(Nc2cnccn2)cc(-c2c(Nc3ccn[nH]3)nc3cccnn23)n1 ... 25.2
CC(=O)Nc1cc(-c2c(Nc3cc[nH]n3)nc3ccccn23)nc(C)n1 ... 31.2
CNc1cc(-c2c(Nc3cc[nH]n3)nc3cccnn23)nc(C)n1 ... 15.6
CC(=O)Nc1cc(-c2c(Nc3ccn(C)n3)nc3ccc(-c4cnn(C(C)C)c4)cn23)nc(C)n1 ... 258

[I] CC(=O)Nc1cc(-c2c(Nc3ccn(C)n3)nc3ccccn23)nc(C)n1
[II] Cc1nc(Nc2cnn(C3CCOC3)c2)cc(-c2c(Nc3ccn[nH]3)nc3cccnn23)n1 (configuration not stated)
Please compare: I and II . Report which one has the smaller half-life value. Your choice should be expressed through its label.
II
(II: 21.6 min, I: 39.6 min)
